molecular target: full-length recombinant human FYN A (Homo sapiens (Human), UniProt P06241); assay: ADP-Glo Kinase Assay, FYN kinase inhibition (primary and secondary screen); type: biochemical; conditions: secondary screen, candidate compounds re-synthesized and expanded
Sequence (P06241 whole entry): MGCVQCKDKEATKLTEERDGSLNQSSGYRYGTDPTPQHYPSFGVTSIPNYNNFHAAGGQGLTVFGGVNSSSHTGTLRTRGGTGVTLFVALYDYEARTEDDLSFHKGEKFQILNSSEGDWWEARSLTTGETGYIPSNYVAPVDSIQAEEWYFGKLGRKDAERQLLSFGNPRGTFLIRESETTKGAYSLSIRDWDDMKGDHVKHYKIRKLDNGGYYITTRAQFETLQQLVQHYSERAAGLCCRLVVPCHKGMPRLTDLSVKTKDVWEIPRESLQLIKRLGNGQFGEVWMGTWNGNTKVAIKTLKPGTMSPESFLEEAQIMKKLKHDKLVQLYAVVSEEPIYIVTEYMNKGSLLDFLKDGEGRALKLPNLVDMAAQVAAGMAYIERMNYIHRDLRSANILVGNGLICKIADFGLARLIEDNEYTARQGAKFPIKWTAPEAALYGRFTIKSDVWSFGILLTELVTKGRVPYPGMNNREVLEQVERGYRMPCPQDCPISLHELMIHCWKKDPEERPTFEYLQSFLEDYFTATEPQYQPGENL
observable: pIC50
One number for each entry, as −log10 of the molar value.

Example cases with answers are listed next.
CN(C)C(=O)c1cccc(-c2cnc3sc(NCC4CC4)nn23)c1 = 6.05
COc1cc(-c2cnc3ccc(NCc4cccs4)nn23)ccc1O = 6.78

For each of the compounds below, state pIC50.
1. CN(C)C(=O)c1cccc(-c2cnc3sc(NCc4ccc5c(c4)OCO5)nn23)c1
2. COc1cc(-c2cnc3ccc(NCc4ccccn4)nn23)ccc1O

*A*
1: 5.72; 2: 6.63

---

For each entry below, report its log10 IC50 value.
molecular target: full-length recombinant human FYN A (Homo sapiens (Human)); experiment: ADP-Glo Kinase Assay, FYN kinase inhibition (primary and secondary screen); assay type: biochemical; conditions: primary screen, initial compounds
Log scale reminder: IC50 in µM, then log10 taken.

Example cases with answers are listed next.
Cc1ccccc1CNc1nn2c(-c3cccc(C(=O)N(C)C)c3)cnc2s1 = 0.57
NC(=O)c1ccc(-c2cnc3ccc(Cc4ccc(F)cc4)nn23)cc1 = 0.11
Oc1cccc(-c2cncc(NCc3ccoc3)c2)c1 = 1.04
OCc1cccc(-c2cnc3ccc(NCc4ccco4)nn23)c1 = 0.59

Pending compound:
*Q* Value lookup for log10 IC50; key = `c1csc(-c2cnc3ccc(-c4ccncc4)nn23)c1`
*A* -0.30

---

biological target: full-length recombinant human FYN A (Homo sapiens (Human)); test: ADP-Glo Kinase Assay, FYN kinase inhibition (primary and secondary screen); assay type: biochemical; conditions: primary screen, initial compounds
Binary label based on IC50 with cut-off 2 µM: below gives True, not below gives False.

Completed entries (count: 3):
OCc1ccc(-c2cnc3ccc(NCc4ccco4)nn23)cc1 = False
NC(=O)c1cccc(-c2cnc3sc(NCC4CC4)nn23)c1 = True
CC(=O)Nc1cccc(-c2cncc(NCc3ccco3)n2)c1 = False

*Q* Below 2 µM on IC50? Entry `CC(=O)c1cccc(-c2cnc3ccc(NCc4ccco4)nn23)c1`
*A* True

*Q* # iterate: `O=CNc1cc(-c2ccc(C(=O)N3CCOCC3)cc2)cn2c(-c3ccc(F)cc3)cnc12`
*A* False

*Q* # iterate: `COc1ccc(-c2cnc3ccc(Cc4ccccc4)nn23)cc1OC`
*A* True
